- assayed system: Progesterone receptor (Homo sapiens)
- Sequence (P06401 whole entry): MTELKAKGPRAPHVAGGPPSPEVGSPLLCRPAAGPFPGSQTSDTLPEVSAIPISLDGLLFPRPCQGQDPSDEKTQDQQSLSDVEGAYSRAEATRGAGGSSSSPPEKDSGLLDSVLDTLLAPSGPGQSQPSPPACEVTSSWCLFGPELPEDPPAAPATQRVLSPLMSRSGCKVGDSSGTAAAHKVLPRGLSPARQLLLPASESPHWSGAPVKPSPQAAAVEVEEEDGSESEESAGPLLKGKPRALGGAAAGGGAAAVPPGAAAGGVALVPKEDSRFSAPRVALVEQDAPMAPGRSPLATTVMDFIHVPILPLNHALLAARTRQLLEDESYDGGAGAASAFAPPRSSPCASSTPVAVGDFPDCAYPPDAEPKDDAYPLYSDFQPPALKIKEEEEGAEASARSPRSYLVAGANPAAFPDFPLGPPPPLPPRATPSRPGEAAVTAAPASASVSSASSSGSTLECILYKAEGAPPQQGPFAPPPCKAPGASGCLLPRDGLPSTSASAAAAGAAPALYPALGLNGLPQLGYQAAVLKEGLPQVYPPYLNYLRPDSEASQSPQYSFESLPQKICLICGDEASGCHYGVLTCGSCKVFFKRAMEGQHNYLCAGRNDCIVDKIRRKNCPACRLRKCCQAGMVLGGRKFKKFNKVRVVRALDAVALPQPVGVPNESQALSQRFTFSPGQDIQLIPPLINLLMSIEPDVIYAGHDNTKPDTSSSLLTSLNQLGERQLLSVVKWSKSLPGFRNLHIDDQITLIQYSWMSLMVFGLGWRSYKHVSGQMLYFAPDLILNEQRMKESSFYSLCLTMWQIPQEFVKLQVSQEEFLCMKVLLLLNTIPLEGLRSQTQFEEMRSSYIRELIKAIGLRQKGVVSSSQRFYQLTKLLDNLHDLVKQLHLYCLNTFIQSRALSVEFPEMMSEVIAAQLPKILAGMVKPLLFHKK
- experiment notes: Binding affinity to human recombinant progesterone-A receptor expressed in SF9 cells
recorded metric: Ki (nM)
Lab book: enter the figure in nM, no units written.

Query :: Requested read-out: Ki. Entry: COc1c(O)ccc2c1-c1ccc3c(c1/C(=C/c1cccc(C)c1F)O2)C(C)=CC(C)(C)N3
Result :: 866
